Experiment: Cell viability assay (CellTiter Glo) in a panel of cell lines;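 note: percent of DMSO-treated control cells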
Type: cell-based, human
Settings: human, TOV-112D cells, TOV-112D; log10 conc -5.90309 mol/l
Endpoint: viability at 1.25 µM (%)
Expressed in %, but write only the number.

Entry under test: Cc1ncsc1-c1ccc(C(CCC(C)CCN2CCC(c3ccc4c(c3)n(C3CCCC3)c3nc(=O)c5c(Br)cccc5n43)CC2)NC(=O)C2CC(O)CN2C(=O)C(NC(=O)C2(F)CC2)C(C)(C)C)cc1 (stereo not shown) [ACBI2] . Its viability at 1.25 µM was 91.7

* * *

Give Solubility pH 6.8 for every item shown.
Experiment: Solubility testing
Format: physicochemical
Settings: pH 6.8

Entry under test: Cc1ncsc1-c1ccc([C@@H](COCCN2CCC(c3ccc4c(c3)n(C3CCCC3)c3nc(=O)c5c(Br)cccc5n43)CC2)NC(=O)[C@@H]2C[C@@H](O)CN2C(=O)[C@@H](NC(=O)C2(F)CC2)C(C)(C)C)cc1 [compound 24] . Its Solubility pH 6.8 was <1.000 <1.000 ug/mL

Entry under test: CN1CCN(c2nc(=O)c3c(Br)cccc3o2)CC1 [compound 15] . Its Solubility pH 6.8 was >82.000 ug/mL

Entry under test: Cc1ncsc1-c1ccc([C@H](CCCCN2CCC(c3ccc4c(c3)n(C3CCCC3)c3nc(=O)c5c(Br)cccc5n43)CC2)NC(=O)[C@@H]2C[C@@H](O)CN2C(=O)[C@@H](NC(=O)C2(F)CC2)C(C)(C)C)cc1 [compound 25] . Its Solubility pH 6.8 was <1.000 ug/mL

Entry under test: Cc1ncsc1-c1ccc([C@H](CCC(C)(C)CCN2CCC(c3ccc4c(c3)n(C3CCCC3)c3nc(=O)c5c(Br)cccc5n43)CC2)NC(=O)[C@@H]2C[C@@H](O)CN2C(=O)[C@@H](NC(=O)C2(F)CC2)C(C)(C)C)cc1 [compound 30] . Its Solubility pH 6.8 was <1.000 ug/mL

Entry under test: Cc1ncsc1-c1ccc([C@H](CC[C@@H](C)CCN2CCC(c3ccc4c(c3)n(C3CCCC3)c3nc(=O)c5c(Br)cccc5n43)CC2)NC(=O)[C@@H]2C[C@@H](O)CN2C(=O)[C@@H](NC(=O)C2(F)CC2)C(C)(C)C)cc1 [compound 29] . Its Solubility pH 6.8 was <1.000 <1.000 ug/mL

Cited source for all entries: paper PMC9551036
